Values were extracted from patent US20230287125A1.

molecular target: T1, human PD-L1-Fc protein (human, UniProt Q9NZQ7 19-238); assay: ELISA, antibody titrated on coated human PD-L1-Fc, OD 450nm; lower left panel
T1 construct: coating antigen of the ELISAs; also called rhPD-L1-Fc; not shown: Fc
T1 sequence (Q9NZQ7 19-238 limits assumed): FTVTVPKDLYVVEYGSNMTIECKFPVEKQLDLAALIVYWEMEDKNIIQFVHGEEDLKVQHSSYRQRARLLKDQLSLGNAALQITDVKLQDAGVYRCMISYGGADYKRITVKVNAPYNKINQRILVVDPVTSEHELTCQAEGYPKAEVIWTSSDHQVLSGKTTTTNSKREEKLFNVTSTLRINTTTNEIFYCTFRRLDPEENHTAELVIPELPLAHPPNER
# EC50 annotations
Dear colleague, please return just the value in ng/mL, with no unit written.

Hu89C10H8-14 (antibody, V domains shown, humanized) VH: EVQLVESGGGLVKPGGSLRLSCAASGFTFSNYWMTWVRQAPGKGLEWVASITNTGSSTFYPDSVKGRFTISRDNAKNSLYLQMNSLRAEDTAVYYCTRDTTIAPFDYWGQGTMVTVSS VL: DIQMTQSPSSLSASVGDRVTITCKASQNLNEYLNWYQQKLGEAPKRLIYKTNTLQAGIPSRFSGSGSGIDYTLTISSLQPEDFATYFCSQYNSGNTFGQGTKLEIK ... 9.83

Now look at this one.
Task item: Returns the measured EC50 for the input binder. Input: Hu89C10H8-16 (antibody, V domains shown, humanized) VH: EVQLVESGGGLVKPGGSLRLSCAASGFTFSNYWMTWIRQAPGKGLEWVASITNTGSSTFYPDSVKGRFTISRDNAKSSLYLQMNSLRAEDTAVYYCTRDTTIAPFDYWGQGTMVTVSS VL: DIQMTQSPSSLSASVGDRVTITCKASQNLNEYLNWYQQKLGEAPKRLIYKTNTLQAGIPSRFSGSGSGIDYTLTISSLQPEDFATYFCSQYNSGNTFGQGTKLEIK
Reply: 7.57
